The entries below come with measured inhibition values attached.
# assay procedure: M. tuberculosis growth inhibition, HTS (AID 449762);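 also: bacterial growth assessed after seven days of incubation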
# assay context: M. tuberculosis H37Rv growth inhibition, 7H9 media; at 25 µM; stronger effect = higher value
About 1,900 (0.58%) of roughly 330,000 compounds were called active. Another 4% or so got no clear call; they are omitted. The list is a sample of the results. Measured potencies and affinities stand elsewhere.
measured attribute: inhibition (%)

* CNC(=O)c1cccnc1Nc1cccc(C(F)(F)F)c1 | -4.06
* CCOC(=O)c1c(-c2ccc(OC)cc2)csc1NC(=O)CSc1ccccc1 | 3.36
* O=C(O)c1cccnc1Nc1cccc(C(F)(F)F)c1 | -0.01
* CCN(CC)S(=O)(=O)c1cccc(C(=O)N/N=C/c2ccccn2)c1 | -3.65
* O=C(O)C(Cc1cnc[nH]1)NS(=O)(=O)c1ccc(Cl)cc1 (stereo unspecified) | 0.91
* CCc1nc(C)cn1S(=O)(=O)c1cc(F)ccc1OC | 0.63
* O=C(O)c1ccc(Cl)c(NCc2cccnc2)c1 | -9.94
* COC(C[C@@H]1O[C@H]1C(=O)COCc1ccccc1)OC | -5.79
* COCCCNC(=O)CN(c1cc(C(F)(F)F)ccc1Cl)S(C)(=O)=O | -8.65
* FC(F)(F)c1cc(Cl)c2nc(-c3ccccc3)cn2c1 | 4.79
* COc1ccc(C(=O)Nc2c(N)nc(SCC(=O)NCC3CCCO3)[nH]c2=O)cc1 (stereo unspecified) | 11.2

----------
# assay procedure: M. tuberculosis growth inhibition, HTS (AID 449762);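 also: bacterial growth assessed after seven days of incubation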
# assay context: M. tuberculosis H37Rv growth inhibition, 7H9 media; at 25 µM; stronger effect = higher value
Out of some 330,000 compounds screened, about 1,900 (0.58%) were called active. Inconclusive results (about 4%) are left out. The list is a sample of the results. Measured potencies and affinities stand elsewhere.
The entries below come with measured inhibition values attached.
measured attribute: inhibition (%)

* O=C(O)c1cccc(S(=O)(=O)Nc2cccc3ccccc23)c1 | 20.9
* O=S(=O)(NC1CCCCC1Nc1ccccc1)c1ccccc1 (stereo unspecified) | -7.27
* C/C(=N/OC(=O)c1c(-c2ccccc2Cl)noc1C)c1cnccn1 | 3.98
* CC(C)(C)C1CCC(=NNC(=O)C2COc3ccccc3O2)CC1 (stereo unspecified) | 2.24
* CCC1CN(C(=O)N2CCC(C(=O)Nc3ccccc3OC)CC2)c2ccccc2O1 (stereo unspecified) | 10.6
* COc1cccc(C(=O)NC(=S)N2c3ccccc3CC2C)c1OC (stereo unspecified) | -5.31
* OCC1(Cc2ccc(Cl)cc2)CCN(CCCc2ccccc2)CC1 | 39.2
* COc1ccc(C2CC(c3ccc(Br)cc3)=NN2C(=O)c2cccnc2)cc1 (stereo unspecified) | 47.5
* COC(=O)c1cc(NC2c3ncccc3C(=O)N2Cc2ccccc2)cc(C(=O)OC)c1 (stereo unspecified) | 2.2
* COc1ccc(C(CNC(=O)c2cccc(NS(=O)(=O)c3ccccc3)c2)N(C)C)cc1 (stereo unspecified) | -11.7
* CCCc1ccc(S(=O)(=O)NCCc2ccncc2)cc1 | 2.76

----------
# assay procedure: M. tuberculosis growth inhibition, HTS (AID 449762);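 also: bacterial growth assessed after seven days of incubation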
# assay context: M. tuberculosis H37Rv growth inhibition, 7H9 media; at 25 µM; stronger effect = higher value
About 1,900 (0.58%) of roughly 330,000 compounds were called active. Not shown: some 4% with an inconclusive outcome. These entries were drawn from the full list. Entries with a potency or affinity are not part of this list.
measured attribute: inhibition (%)

- COc1ccc(S(=O)(=O)N(C)CC(=O)NC2CCCC2)cc1OC: -0.73
- CCN(CC)C(=O)N1CCC(NC(=O)c2ccc(C(C)(C)C)cc2)CC1: 9.36
- CC(C)CC(NS(=O)(=O)c1ccc2c(c1)oc(=O)n2C)C(=O)NCc1cccnc1 (centres undefined): -12.4
- Cc1cc(NC(=O)c2cccnc2)ccc1NC(=O)c1cc2ccccc2o1: 5.9
- C[C@@H](NC(=O)[C@@H]1Cc2ccccc2CN1)C(=O)Nc1ccc2c(c1)OCCO2: 8.26
- CN(C)S(=O)(=O)c1ccc(C(=O)NCc2nnc(SCC(=O)c3ccccc3)o2)cc1: -10.3
- CC(NC(=O)c1cccnc1)C(c1cccs1)N1CCN(c2ccccc2F)CC1 (centres undefined): -3.95
- Cc1nn(CC(C)C(=O)N2CCN(S(=O)(=O)c3ccc(Cl)cc3)CC2)c(C)c1C (centres undefined): -2.72
- CCOc1ccc(N2C(=O)CC(NCC#N)C2=O)cc1 (centres undefined): 0.53
- CCc1c(C)sc(NC(=O)c2cc(-c3cc(OC)ccc3OC)on2)c1C#N: 9.02
- O=C(NCC(c1ccco1)N1CCOCC1)c1cccc([N+](=O)[O-])c1 (centres undefined): 1.76
- O=C(Nc1cccc(NC(=O)c2cc([N+](=O)[O-])ccc2Cl)n1)c1cc([N+](=O)[O-])ccc1Cl: 10.1
- O=C(C1CC=CCC1)N1CCC(CO)(Cc2ccc(Cl)cc2)CC1 (centres undefined): 14.7
- O=C(O)c1ccc(Cn2ccc3ccccc32)o1: 2
- CC(C)NC(=S)NN=C1c2ccccc2-c2ccccc21: -0.95
- O=C(c1ccc(Cl)cc1)C1CCCN(Cc2cccc3cccnc23)C1 (centres undefined): 9.96
- Cc1ccc(C#CC[N+]2(C)CCCCC2)cc1: -6.71
- O=C(Nc1c(C(=O)NCc2ccco2)cnn1-c1ccccc1)c1ccc(F)cc1: 3.13
- O=S(=O)(c1ccc2ccccc2c1)N1CCN(S(=O)(=O)N2CCCCC2)CC1: 0.71
- CCNc1nc(C)nc2c1oc1ccccc12: 2.03
- CCCCN=C1CC(C)(C)CC(=O)/C1=C(/O)CCC: -2.63
- Cc1nc([N+](=O)[O-])cn1CC(=O)c1ccc(Br)cc1: 4.4
- COc1ccc(CCNc2nc(C)nc3c2oc2ccccc23)cc1OC: 2
- CC(C)c1ccccc1NC(=O)CC1(CC(=O)O)CCCC1: -1.9
- O=C(CCC1CCCCC1)NC1=NCCS1: -6.25
- CCC(=O)Nc1ccc2c(c1)nc(CCNC(=O)c1ccco1)n2C: 2.89
- COC(=O)c1c(N)n(CCCN2CCOCC2)c2nc3ccccc3nc12: 4.91
- COCCOC(=O)c1c(N)n(CCCN2CCOCC2)c2nc3ccccc3nc12: 0.66
- Cc1csc2nc(O)c(C(=O)NCc3ccc4c(c3)OCO4)c(=O)n12: 28.7
